In this section, each of the compounds is paired with its reported Km.
- PROCEDURE TEXT: Glucuronidation kinetics in pooled human liver microsomes (HPLC-UV)
- TEST CONTEXT: human, pH 7.4
- Procedure: Pooled human liver microsomes ( 20mg/mL ) and pooled human intestinal microsomes ( 20mg/mL ) were from BD Biosciences. We first placed the reaction mixtures for 30 min on ice and then incubated them for 5 min at 37°C. The addition of uridine 5'-diphospho-glucuronic acid (Sigma-Aldrich) to a final concentration of 5 mM started the reaction. […] In the following step, we put the samples on ice for 15 min, centrifuged at 16,000×g for 10 min, and analyzed the supernatants using HPLC-UV. […]
QUANTITY KIND: Km

O=S(=O)(c1ccc(O)cc1)c1ccc(O)cc1    285 µM
Oc1ccc(Cc2ccc(O)cc2)cc1    17.9 µM

* * *

- PROCEDURE TEXT: Glucuronidation kinetics in pooled human liver microsomes (HPLC-UV)
- TEST CONTEXT: human, pooled human liver microsomes, pH 7.4
QUANTITY KIND: Km (µM)

Oc1ccc(C(c2ccc(O)cc2)(C(F)(F)F)C(F)(F)F)cc1    4.21
